Test system: coxsackievirus B3 (CVB3-GFP)
Assay type: cell-based
Settings: HeLa cells, GFP-positive cells within RFP-positive gate, replicate R1
measured_quantity: Percent Infected R1

stdin: Look up Percent Infected R1: RNF11: human RING type E3 ligase expressed from lentiviral vector (protein, UniProt Q9Y3C5 2-154, looked up) RING finger protein 11: GNCLKSPTSDDISLLHESQSDRASFGEGTEPDQEPPPPYQEQVPVPVYHPTPSQTRLATQLTEEEQIRIAQRIGLIQHLPKGVYDPGRDGSEKKIRECVICMMDFVYGDPIRFLPCMHIYHLDCIDDWLMRSFTCPSCMEPVDAALLSSYETN
stdout: 90.7%

stdin: Consider next the molecule RNF144B: human RING type E3 ligase expressed from lentiviral vector (protein, UniProt Q7Z419 1-303, looked up, lentiviral expression, human RING type E3 ligase expressed from lentiviral vector) E3 ubiquitin-protein ligase …: MGSAGRLHYLAMTAENPTPGDLAPAPLITCKLCLCEQSLDKMTTLQECQCIFCTACLKQYMQLAIREGCGSPITCPDMVCLNHGTLQEAEIACLVPVDQFQLYQRLKFEREVHLDPYRTWCPVADCQTVCPVASSDPGQPVLVECPSCHLKFCSCCKDAWHAEVSCRDSQPIVLPTEHRALFGTDAEAPIKQCPVCRVYIERNEGCAQMMCKNCKHTFCWYCLQNLDNDIFLRHYDKGPCRNKLGHSRASVMWNRTQVVGILVGLGIIALVTSPLLLLASPCIICCVCKSCRGKKKKHDPSTT in the same way.
stdout: 93.9%
